target: human AR (Homo sapiens, UniProt P10275); experiment: Co-transfection assay, AR antagonist activity (CV-1 cells, in presence of DHT); assay type: cell-based; settings: read-out: AR Antagonist CV-1 Cells Potency

- Compound: "CSCC1CCCCN1c1ccc2[nH]c(=O)cc(C(F)(F)F)c2c1 (racemic)"
  Readout units: "nM"
  Censoring sign: ">"
  IC50: 10000
- Compound: "C[C@@H]1CC[C@H](C)N1c1ccc2[nH]c(=O)cc(C(F)(F)F)c2c1"
  Readout units: "nM"
  Censoring sign: ">"
  IC50: 10000
- Compound: "O=c1cc(C(F)(F)F)c2cc(N3CCCC[C@@H]3[C@@H](O)C(F)(F)F)ccc2[nH]1"
  Readout units: "nM"
  Censoring sign: ">"
  IC50: 10000
- Compound: "CC1CCCCN1c1ccc2[nH]c(=O)cc(C(F)(F)F)c2c1 (racemic)"
  Readout units: "nM"
  Censoring sign: ">"
  IC50: 10000
- Compound: "CC(C)CN(CC(F)(F)F)c1ccc2[nH]c(=O)cc(C(F)(F)F)c2c1"
  Readout units: "nM"
  Censoring sign: ">"
  IC50: 10000
- Compound: "O=c1cc(C(F)(F)F)c2cc(C3=CCCC3)ccc2[nH]1"
  Readout units: "nM"
  Censoring sign: "="
  IC50: 36
- Compound: "O=c1cc(C(F)(F)F)c2cc(N(Cc3ccccc3)Cc3ccccc3)ccc2[nH]1"
  Readout units: "nM"
  Censoring sign: "="
  IC50: 7
- Compound: "Nc1cc2[nH]c(=O)cc(C(F)(F)F)c2cc1C1CCCCC1"
  Readout units: "nM"
  Censoring sign: "="
  IC50: 26
- Compound: "CC1(C)OC(=O)Nc2ccc(C3=CCCCC3)cc21"
  Readout units: "nM"
  Censoring sign: "="
  IC50: 27
- Compound: "Cn1c(=O)cc(C(F)(F)F)c2ccc(NCC(F)(F)F)cc21"
  Readout units: "nM"
  Censoring sign: "="
  IC50: 73
- Compound: "O=c1cc(C(F)(F)F)c2cc(N3CCCC3Cc3ccccc3)ccc2[nH]1 (racemic)"
  Readout units: "nM"
  Censoring sign: "="
  IC50: 15
- Compound: "O=c1cc(C(F)(F)F)c2cc(NCC(Cl)(Cl)Cl)ccc2[nH]1"
  Readout units: "nM"
  Censoring sign: "="
  IC50: 14
- Compound: "CC1(C)OC(=O)Nc2ccc(N(CC(F)(F)F)CC(F)(F)F)cc21"
  Readout units: "nM"
  Censoring sign: ">"
  IC50: 10000

====

molecular target: human AR (Homo sapiens); experiment: AR whole cell competitive binding assay (COS-1 cells, 3H-DHT); details: 1 nM 3H-DHT, Cheng-Prusoff
pKi: −log10 of the molar value.
# pKi >= 7 gives label 1, anything below gives label 0

- Molecule: "Cc1cccc(-c2ccc3[nH]c(=O)cc(C(F)(F)F)c3c2)c1"
  Group: "label 0"
- Molecule: "O=C1C=C(c2ccc3[nH]c(=O)cc(C(F)(F)F)c3c2)CCC1"
  Group: "label 0"
- Molecule: "CCCCC1(O)C=C(c2ccc3c(c2)C(C)(C)OC(=O)N3)CCC1 (racemic)"
  Group: "label 0"
- Molecule: "O=c1cc(C(F)(F)F)c2cc(-c3cccc(F)c3)ccc2[nH]1"
  Group: "label 0"
- Molecule: "C[C@@H]1CC[C@H](C)N1c1ccc2[nH]c(=O)cc(C(F)(F)F)c2c1"
  Group: "label 1"
- Molecule: "O=c1cc(C(F)(F)F)c2cc(N3CCCC3Cc3ccccc3)ccc2[nH]1 (racemic)"
  Group: "label 0"
- Molecule: "O=c1cc(C(F)(F)F)c2cc(N(CC(Cl)Cl)CC(Cl)Cl)ccc2[nH]1"
  Group: "label 1"
- Molecule: "C=CCN(CC=C)c1ccc2[nH]c(=O)cc(C(F)(F)F)c2c1"
  Group: "label 1"
- Molecule: "O=c1cc(C(F)(F)F)c2cc(-c3cccc(F)c3F)ccc2[nH]1"
  Group: "label 0"
- Molecule: "CCCOc1c(NCC(F)(F)F)ccc2[nH]c(=O)cc(C(F)(F)F)c12"
  Group: "label 1"

====

Biological target: human AR (Homo sapiens, UniProt P10275)
Sequence (P10275 1-920): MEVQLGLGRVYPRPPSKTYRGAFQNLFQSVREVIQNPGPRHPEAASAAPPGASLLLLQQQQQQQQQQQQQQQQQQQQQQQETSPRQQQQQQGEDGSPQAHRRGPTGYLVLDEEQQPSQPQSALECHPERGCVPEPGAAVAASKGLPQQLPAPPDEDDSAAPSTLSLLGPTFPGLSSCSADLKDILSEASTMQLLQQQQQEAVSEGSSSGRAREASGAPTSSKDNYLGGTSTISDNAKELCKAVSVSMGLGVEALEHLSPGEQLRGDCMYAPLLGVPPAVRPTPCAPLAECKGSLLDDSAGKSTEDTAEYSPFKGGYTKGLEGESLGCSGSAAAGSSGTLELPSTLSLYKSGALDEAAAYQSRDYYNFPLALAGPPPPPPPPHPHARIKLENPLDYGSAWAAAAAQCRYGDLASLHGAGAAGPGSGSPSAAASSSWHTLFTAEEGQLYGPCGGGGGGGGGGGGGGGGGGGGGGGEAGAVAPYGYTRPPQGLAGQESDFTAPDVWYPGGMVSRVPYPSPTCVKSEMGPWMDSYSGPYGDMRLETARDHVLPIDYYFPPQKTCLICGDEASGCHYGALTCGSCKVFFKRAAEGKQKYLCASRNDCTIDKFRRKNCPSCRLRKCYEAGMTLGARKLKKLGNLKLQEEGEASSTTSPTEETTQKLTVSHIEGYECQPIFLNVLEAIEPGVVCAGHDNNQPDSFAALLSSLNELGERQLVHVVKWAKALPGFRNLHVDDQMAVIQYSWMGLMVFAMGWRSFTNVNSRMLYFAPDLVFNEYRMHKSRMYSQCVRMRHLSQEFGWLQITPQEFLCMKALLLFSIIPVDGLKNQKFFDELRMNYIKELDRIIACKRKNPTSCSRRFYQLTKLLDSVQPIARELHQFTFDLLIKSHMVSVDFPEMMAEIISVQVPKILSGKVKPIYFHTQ
Experiment: Co-transfection assay, AR antagonist activity (CV-1 cells, in presence of DHT)
Format: cell-based
Conditions: CV-1 cells; percent maximal inhibition, DHT at its EC50
Measured metric: AR Antagonist CV-1 Cells Efficacy (%)

- Smiles notation: "CC(C)c1ccc2[nH]c(=O)cc(C(F)(F)F)c2c1"
  Measured metric: "AR Antagonist CV-1 Cells Efficacy (%)"
  Reported value: "82%"

====

target: human AR (Homo sapiens); experiment: Co-transfection assay, AR antagonist activity (CV-1 cells, in presence of DHT); type: cell-based
Measured metric: AR Antagonist CV-1 Cells Efficacy (%)

- Smiles notation: "CCCNc1ccc2[nH]c(=O)cc(C(F)(F)F)c2c1"
  Target: "human AR (Homo sapiens)"
  Reported value: "72%"

====

Item-by-item account of AR Agonist CV-1 Cells Efficacy (%)
target: human AR (Homo sapiens); test: Co-transfection assay, AR agonist activity (CV-1 cells, MTV-LUC reporter); assay type: cell-based; settings: CV-1 cells; percent maximal response relative to reference agonist DHT

- Molecule: "CC1(C)CC(=O)Nc2ccc(N(CC(F)(F)F)CC(F)(F)F)cc21"
  AR Agonist CV-1 Cells Efficacy (%): "110%"
- Molecule: "CCCC1CCC(CCC)N1c1ccc2[nH]c(=O)cc(C(F)(F)F)c2c1 (racemic)"
  AR Agonist CV-1 Cells Efficacy (%): "36%"
- Molecule: "CCN(CC(C)(C)C)c1ccc2[nH]c(=O)cc(C(F)(F)F)c2c1"
  AR Agonist CV-1 Cells Efficacy (%): "66%"
- Molecule: "CC1(C)CC2CC(C)(CN2c2ccc3[nH]c(=O)cc(C(F)(F)F)c3c2)C1 (racemic)"
  AR Agonist CV-1 Cells Efficacy (%): "73%"
- Molecule: "O=c1cc(C(F)(F)F)c2cc(C3=CCCCCC3)ccc2[nH]1"
  AR Agonist CV-1 Cells Efficacy (%): "33%"
- Molecule: "O=c1cc(C(F)(F)F)c2cc(N3CCCCC3CCOCc3ccc(C(F)(F)F)cc3)ccc2[nH]1 (racemic)"
  AR Agonist CV-1 Cells Efficacy (%): "83%"
- Molecule: "CCCCC1(O)C=C(c2ccc3c(c2)C(C)(C)OC(=O)N3)CCC1 (racemic)"
  AR Agonist CV-1 Cells Efficacy (%): "25%"

====

Target: human AR (Homo sapiens, UniProt P10275)
Sequence (P10275 1-920): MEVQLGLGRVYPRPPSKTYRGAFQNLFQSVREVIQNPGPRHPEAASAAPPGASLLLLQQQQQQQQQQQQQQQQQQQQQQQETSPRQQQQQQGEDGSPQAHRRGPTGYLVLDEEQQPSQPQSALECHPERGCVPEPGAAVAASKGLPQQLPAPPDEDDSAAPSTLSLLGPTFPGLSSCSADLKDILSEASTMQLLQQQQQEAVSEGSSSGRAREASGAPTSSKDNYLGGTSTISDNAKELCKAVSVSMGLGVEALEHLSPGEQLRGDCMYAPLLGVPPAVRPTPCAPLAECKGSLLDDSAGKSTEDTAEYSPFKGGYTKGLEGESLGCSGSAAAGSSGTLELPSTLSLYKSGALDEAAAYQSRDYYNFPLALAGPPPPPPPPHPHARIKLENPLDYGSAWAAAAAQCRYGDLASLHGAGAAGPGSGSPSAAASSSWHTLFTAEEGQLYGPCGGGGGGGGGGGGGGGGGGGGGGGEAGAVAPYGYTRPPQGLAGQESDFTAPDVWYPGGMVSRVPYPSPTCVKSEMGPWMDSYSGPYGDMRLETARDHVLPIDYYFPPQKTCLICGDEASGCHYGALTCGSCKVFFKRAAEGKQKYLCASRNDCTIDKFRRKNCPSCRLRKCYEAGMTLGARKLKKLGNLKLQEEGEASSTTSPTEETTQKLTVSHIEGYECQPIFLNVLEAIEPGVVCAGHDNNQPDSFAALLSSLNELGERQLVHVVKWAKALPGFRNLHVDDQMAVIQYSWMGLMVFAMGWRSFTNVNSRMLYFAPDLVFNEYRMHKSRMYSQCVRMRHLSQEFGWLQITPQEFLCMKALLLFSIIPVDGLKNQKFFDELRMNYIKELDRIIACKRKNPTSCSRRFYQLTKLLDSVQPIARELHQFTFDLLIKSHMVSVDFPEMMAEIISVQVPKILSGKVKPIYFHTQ
Test: Co-transfection assay, AR agonist activity (CV-1 cells, MTV-LUC reporter)
Conditions: CV-1 cells; agonist potency EC50
With a cut-off of 2 nM, any EC50 strictly below it is called 1 (yes); any EC50 meeting it or above is called 0 (no).

- Compound: "O=c1cc(C(F)(F)F)c2cc(-c3cccc(F)c3)ccc2[nH]1 [Compound 741]"
  Group: "0 (no)"
- Compound: "CC1(C)CC(=O)Nc2ccc(N(CC(F)(F)F)CC(F)(F)F)cc21 [Compound 501]"
  Group: "0 (no)"
- Compound: "O=c1cc(C(F)(F)F)c2cc(N3CCCCCC3)ccc2[nH]1 [Compound 330]"
  Group: "0 (no)"
- Compound: "COC[C@H]1CCCN1c1ccc2[nH]c(=O)cc(C(F)(F)F)c2c1 [Compound 423]"
  Group: "0 (no)"
- Compound: "CCCN(CC(F)(F)F)c1ccc2[nH]c(=O)cc(C)c2c1 [Compound 374]"
  Group: "0 (no)"
- Compound: "C=CCN(CC1CC1)c1ccc2[nH]c(=O)cc(C(F)(F)F)c2c1 [Compound 285]"
  Group: "1 (yes)"
- Compound: "O=c1cc(C(F)(F)F)c2cc(C3=CCCC3)ccc2[nH]1 [Compound 632]"
  Group: "0 (no)"
- Compound: "CCCN(CC1CC1)c1ccc2[nH]c(=O)cc(C(F)(F)F)c2c1 [Compound 254]"
  Group: "1 (yes)"
- Compound: "COc1cccc(-c2ccc3[nH]c(=O)cc(C)c3c2)c1 [Compound 758]"
  Group: "0 (no)"
- Compound: "CC(C)c1ccc2c(c1)CN(C)C(=O)N2 [Compound 721]"
  Group: "0 (no)"
- Compound: "O=c1cc(C(F)(F)F)c2cc(N3CCCC[C@H]3CCl)ccc2[nH]1 [Compound 432]"
  Group: "0 (no)"
- Compound: "O=C(Nc1ccc2c(C(F)(F)F)cc(=O)[nH]c2c1)C(F)(F)F [Compound 528]"
  Group: "0 (no)"
